Where do the numbers come from? From patent US20210403591A1.

- assayed.target: T1, mTfR-1 Q327A on Expi293 cells (mouse, UniProt Q62351 1-763)
- T1 construct: whole, on cells
- T1 sequence (Q62351 whole entry Q327A): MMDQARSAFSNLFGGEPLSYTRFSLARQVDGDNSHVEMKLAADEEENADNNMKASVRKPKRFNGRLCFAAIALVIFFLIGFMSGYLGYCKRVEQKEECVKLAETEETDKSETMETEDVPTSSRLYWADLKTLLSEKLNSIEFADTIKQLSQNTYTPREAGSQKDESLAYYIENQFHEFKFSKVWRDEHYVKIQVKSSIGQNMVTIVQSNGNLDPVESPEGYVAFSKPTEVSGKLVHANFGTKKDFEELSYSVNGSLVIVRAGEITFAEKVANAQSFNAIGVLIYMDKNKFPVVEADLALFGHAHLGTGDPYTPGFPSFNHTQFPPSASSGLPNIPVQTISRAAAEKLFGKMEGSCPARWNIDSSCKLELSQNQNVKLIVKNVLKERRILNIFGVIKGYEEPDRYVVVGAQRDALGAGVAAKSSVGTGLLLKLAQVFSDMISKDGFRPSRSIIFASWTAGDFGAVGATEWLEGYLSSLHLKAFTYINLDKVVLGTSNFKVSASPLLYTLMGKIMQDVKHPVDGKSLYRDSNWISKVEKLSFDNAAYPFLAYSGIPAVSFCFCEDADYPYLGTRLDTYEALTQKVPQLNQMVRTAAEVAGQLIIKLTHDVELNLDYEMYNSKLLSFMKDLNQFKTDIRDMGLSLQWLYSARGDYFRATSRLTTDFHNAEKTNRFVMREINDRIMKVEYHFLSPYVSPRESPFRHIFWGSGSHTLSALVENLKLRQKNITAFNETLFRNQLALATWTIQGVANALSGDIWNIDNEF
- test.summary: FACS, transfected Expi293 cells
property.measured: % double-positive cells vs WT (%)
Give bare numbers, in %.

[
  {
    "binder": "Clone C variant 13 VNAR-hFc (Fc fusion, not shown: a dimerising Fc or GST, also called Clone C v13; Clone C var; 13) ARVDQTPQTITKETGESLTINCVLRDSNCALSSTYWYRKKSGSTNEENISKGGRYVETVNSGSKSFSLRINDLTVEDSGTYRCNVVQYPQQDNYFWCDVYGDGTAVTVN",
    "% double-positive cells vs WT, %": 85
  },
  {
    "binder": "Clone C VNAR-hFc fusion (Fc fusion, not shown: a dimerising Fc or GST, bivalent VNAR-Fc; also called Clone C-hFc) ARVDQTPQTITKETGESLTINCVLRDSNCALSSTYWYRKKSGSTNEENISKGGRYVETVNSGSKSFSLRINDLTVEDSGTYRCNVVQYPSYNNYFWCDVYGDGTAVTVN",
    "% double-positive cells vs WT, %": 83
  },
  {
    "binder": "8D3 antibody (anti-mouse TfR-1 control; 8D3-hFc formatted antibody) (antibody, V domains shown) VH: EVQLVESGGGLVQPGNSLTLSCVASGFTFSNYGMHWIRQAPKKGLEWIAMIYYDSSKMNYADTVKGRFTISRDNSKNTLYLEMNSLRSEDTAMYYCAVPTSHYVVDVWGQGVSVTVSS VL: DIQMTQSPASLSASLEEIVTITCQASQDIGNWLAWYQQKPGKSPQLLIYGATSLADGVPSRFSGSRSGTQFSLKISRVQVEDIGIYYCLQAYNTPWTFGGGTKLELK",
    "% double-positive cells vs WT, %": 124
  }
]

Now let's try a different one.
For Clone C variant 18 VNAR-hFc (Fc fusion, not shown: a dimerising Fc or GST, also called Clone C v18; Clone C var; 18) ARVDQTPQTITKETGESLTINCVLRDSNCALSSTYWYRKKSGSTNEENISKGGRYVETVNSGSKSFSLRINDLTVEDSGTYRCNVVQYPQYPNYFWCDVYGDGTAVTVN , what is its reported % double-positive cells vs WT?
119
